FYI, the data here is from patent US20210196796A1.

Target: T1, orthogonal hCD122 receptor (hoRb), hCD122 with H133D and Y134F (human, UniProt P14784 27-550); note: reference of the scale not given here
T1 sequence: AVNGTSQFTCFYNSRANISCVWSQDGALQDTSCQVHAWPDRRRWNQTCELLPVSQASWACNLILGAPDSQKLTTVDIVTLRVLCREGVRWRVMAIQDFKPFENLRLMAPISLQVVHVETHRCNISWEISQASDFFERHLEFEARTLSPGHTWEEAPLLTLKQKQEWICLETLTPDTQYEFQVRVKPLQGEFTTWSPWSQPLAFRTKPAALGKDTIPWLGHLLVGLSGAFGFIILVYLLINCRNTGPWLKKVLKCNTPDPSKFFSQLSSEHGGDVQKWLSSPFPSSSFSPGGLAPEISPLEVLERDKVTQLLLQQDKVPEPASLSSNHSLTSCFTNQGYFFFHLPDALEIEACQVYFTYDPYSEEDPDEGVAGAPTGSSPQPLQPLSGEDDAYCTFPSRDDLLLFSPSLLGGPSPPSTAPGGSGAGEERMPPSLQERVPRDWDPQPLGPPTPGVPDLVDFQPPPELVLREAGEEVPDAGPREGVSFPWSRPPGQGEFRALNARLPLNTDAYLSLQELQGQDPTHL
Assay: cell-based or functional assay
QUANTITY_KIND: Relative Proliferation Fold Change 3F8 1:2

Worked set:
BINDER | RESULT
ΔT7, SQVLKA (ligand) APTSSSKKTQLQLSQLLVLLKAILNGINNYKNPKLTRMLTFKFYMPKKATELKHLQCLEEELKPLEEVLNLAQSKNFHLRPRDLISNINVIVLELKGSETTFMCEYADETATIVEFLNRWITFCQSIISTLT | 49.1 fold
SQVLTA (ligand) APTSSSTKKTQLQLSQLLVLLTAILNGINNYKNPKLTRMLTFKFYMPKKATELKHLQCLEEELKPLEEVLNLAQSKNFHLRPRDLISNINVIVLELKGSETTFMCEYADETATIVEFLNRWITFCQSIISTLT | 0.46 fold
ΔA1, SQVLKA (ligand) PTSSSTKKTQLQLSQLLVLLKAILNGINNYKNPKLTRMLTFKFYMPKKATELKHLQCLEEELKPLEEVLNLAQSKNFHLRPRDLISNINVIVLELKGSETTFMCEYADETATIVEFLNRWITFCQSIISTLT | 171 fold

Please turn your attention to the following entry.
## Task Fill in the blank: the reported Relative Proliferation Fold Change 3F8 1:2 of R81D, SQVLKA (ligand) APTSSSTKKTQLQLSQLLVLLKAILNGINNYKNPKLTRMLTFKFYMPKKATELKHLQCLEEELKPLEEVLNLAQSKNFHLDPRDLISNINVIVLELKGSETTFMCEYADETATIVEFLNRWITFCQSIISTLT is ____.
## Result 7.51 fold
